Value source: paper PMC2854131

I'd appreciate it if you could supply solubility values for the items below.
# method.description: physchem
# condition.label: water

input: Supply measured solubility of `NCCCCn1c(-c2ccccc2)c(F)c2ccc(C(=O)c3cc(CC(=O)NO)c(-c4ccc(O)cc4)s3)cc21` in your reply.
output: ≥ 5 mM

Continuing:
input: Determine from records and report solubility for `NCCCCn1c(-c2ccccc2)c(F)c2ccc(C(=O)c3cc(CC(=O)NO)c(-c4cccc(N)c4)s3)cc21`
output: ≥ 5 mM
